# Tested on: Fibroblast
# assay-overview: Incucyte cell viability with human fibroblast; further: unitless GR value; below 1 slowed growth and below 0 cell loss
# Type: toxicity, cell-based
# assay-context: 18 h, 10 µM, compound concentration 10 uM, replicate number 2
Criterion: Growth Rate strictly under 0.6. Met: rule met. Not met: rule not met.

Prompt: Input CCOC(=O)CS(=O)(=O)c1ccc([C@@H](CO)NC(=O)c2cc3c(Cl)c(Cl)c(C)cc3n2C)cc1 ; condition: Growth Rate strictly below 0.6. Does it hold?
Completion: rule met

Prompt: Quick check: Growth Rate of O=C(NCCS(=O)(=O)c1ccc(C(F)(F)F)cn1)c1ccc(Cl)cc1 under 0.6?
Completion: rule not met

Prompt: # strict comparison: is reported Growth Rate < 0.6? input = CCOC(=O)N1CCC(CN(Cc2ccc(Cl)cc2)Cc2ccc([N+](=O)[O-])s2)C1 (centres undefined)
Completion: rule met

Prompt: Is Growth Rate strictly under 0.6 for the entry CCNc1ccc(-c2nn(-c3ccccc3C)c3c2C(C)Cc2nc(NC(=O)OC)sc2-3)cn1.O=C(O)C(F)(F)F (centres undefined) ?
Completion: rule met

Prompt: Report whether reported Growth Rate is lower than 0.6 (strictly) for O=S(=O)(Nc1nnc2cc(OCC34CC5CC(CC(C5)C3)C4)c(C3CC3)cn12)C1CC1
Completion: rule met

Prompt: Growth Rate under 0.6? Item: CCO[C@@H](Cc1ccc(OCCc2ccc(OS(C)(=O)=O)cc2)cc1)C(=O)O
Completion: rule not met

Prompt: Below 0.6 on Growth Rate? Entry [2H]C([2H])([2H])NC(=O)c1nnc(NC(=O)C2CC2)cc1Nc1cccc(-c2ncn(C)n2)c1OC
Completion: rule not met
